- ASSAY_TEXT: Oral bioavailability in BDF1 mouse at 50 mg/kg after 2 to 24 hrs by HPLC analysis
- Format: ADME, organism-based
- STATED_CONDITIONS: in vivo
REPORTED_PROPERTY: bioavailability (%)
Give just the numeric value; % need not be written.

Dear colleague, I am looking for the recorded bioavailability of the following compound: `Oc1ncc(F)cn1`
78

----------
- STUDY_TARGET: Aldehyde oxidase 1 (Cavia porcellus, UniProt H9TB17)
- Sequence (H9TB17 whole entry): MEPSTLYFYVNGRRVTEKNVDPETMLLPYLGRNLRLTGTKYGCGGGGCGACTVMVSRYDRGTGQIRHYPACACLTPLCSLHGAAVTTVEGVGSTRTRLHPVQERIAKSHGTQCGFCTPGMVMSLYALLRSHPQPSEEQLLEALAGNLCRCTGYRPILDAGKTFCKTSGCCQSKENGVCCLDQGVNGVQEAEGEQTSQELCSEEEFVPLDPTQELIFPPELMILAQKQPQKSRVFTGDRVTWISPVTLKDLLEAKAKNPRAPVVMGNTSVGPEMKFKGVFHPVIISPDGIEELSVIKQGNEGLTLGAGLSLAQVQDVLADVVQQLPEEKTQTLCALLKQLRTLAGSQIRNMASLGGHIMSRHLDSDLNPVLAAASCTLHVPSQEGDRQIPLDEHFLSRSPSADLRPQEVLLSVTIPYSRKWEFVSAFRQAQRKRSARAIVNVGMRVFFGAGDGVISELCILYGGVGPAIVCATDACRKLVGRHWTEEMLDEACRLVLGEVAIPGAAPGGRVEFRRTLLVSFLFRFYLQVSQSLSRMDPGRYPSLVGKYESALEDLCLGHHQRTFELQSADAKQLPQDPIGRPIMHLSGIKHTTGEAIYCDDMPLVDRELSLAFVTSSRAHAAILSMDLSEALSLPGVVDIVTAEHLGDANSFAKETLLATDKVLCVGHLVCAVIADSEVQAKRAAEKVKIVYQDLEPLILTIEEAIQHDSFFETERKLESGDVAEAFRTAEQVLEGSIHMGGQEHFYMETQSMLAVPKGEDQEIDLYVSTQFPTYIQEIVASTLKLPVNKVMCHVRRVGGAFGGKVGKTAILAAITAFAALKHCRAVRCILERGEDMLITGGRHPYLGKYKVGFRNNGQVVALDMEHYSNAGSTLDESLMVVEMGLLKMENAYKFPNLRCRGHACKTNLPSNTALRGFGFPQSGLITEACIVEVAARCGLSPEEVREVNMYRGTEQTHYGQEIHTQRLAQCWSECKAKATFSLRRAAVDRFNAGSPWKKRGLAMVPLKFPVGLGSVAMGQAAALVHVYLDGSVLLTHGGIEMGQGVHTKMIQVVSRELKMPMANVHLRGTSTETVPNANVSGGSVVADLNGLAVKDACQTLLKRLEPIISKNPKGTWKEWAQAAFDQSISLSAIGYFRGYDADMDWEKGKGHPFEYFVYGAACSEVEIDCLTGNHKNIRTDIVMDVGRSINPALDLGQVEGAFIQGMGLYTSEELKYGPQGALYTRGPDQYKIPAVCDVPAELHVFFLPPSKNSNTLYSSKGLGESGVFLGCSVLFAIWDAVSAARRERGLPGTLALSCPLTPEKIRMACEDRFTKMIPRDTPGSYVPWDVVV
- ASSAY_TEXT: Substrate activity at aldehyde oxidase in guinea pig liver cytosol assessed as enzyme-mediated drug uptake at 1 uM
- Assay type: ADME, subcellular
Would you kindly list K for each of these molecules?

Dear colleague, I am looking for the recorded K of the following molecule: CCNC(=O)OC1CCN(c2nncc3cc(OC)c(OC)cc23)CC1 [CARBAZERAN]
3.6 to 6.1

Dear colleague, I am looking for the recorded K of the following molecule: c1ccc2ncccc2c1 [QUINOLINE]
3.6 to 6.1

Dear colleague, I am looking for the recorded K of the following molecule: N=C(N)NC(=O)c1cnn(-c2cccc3ncccc23)c1C1CC1 [ZONIPORIDE]
3.6 to 6.1
